# credit: the supplement of paper PMC4466140

molecular target: ScFus1; assay: SPOT peptide array binding signal intensity (averaged, normalized) (arbitrary units (background-subtracted, floor 0; scale differs between SH3 domains)); higher = stronger binding of the SH3 domain to the peptide
MEASURED METRIC: SPOT peptide array binding signal intensity

BINDER | RESULT QUALIFIER | RESULT
RRGPAPPPPPRASRP | = | 12.5
KMSRSPPRPPSLKII | = | 463
VAPPPLPNRQLPNLD | ≤ | 0
ERPKRRAPPPVPKKP | = | 6
KLSRGRYGLPLSSRP | = | 102
ALFRLSFFFPLDPAY | = | 3920
VFQFQMPTTPISTKM | = | 327
NILKRRPLKLEAPSK | = | 149
RKNRAPPQRPRFNRD | = | 293
LTRRFPFLFPFDTRM | = | 289
VSKLRSPNTPRRLRK | = | 143
APPLPPTAPPPPSLP | ≤ | 0
PIVPSSPAPPLPLSG | ≤ | 0
AGKRRLPLVRFKASD | = | 584
YSRKKLPVVLSKMTL | = | 108
